- Tested on: SW620 colorectal carcinoma cell line (mutant RAS)
- assay_overview: Assay C - SRB cell proliferation assay, SW620
- Format: cell-based
- assay_conditions: Homo sapiens, SW-620, 120 h; SW620, 5 days growth
measured_metric: GI50 (nM)

query_smiles | measured_metric | result_unit | quantitative_readout
CC(C)(C)c1cc(NC(=O)Nc2ccc(Oc3ccnc4[nH]c(=O)[nH]c34)cc2)n(-c2ccc(F)cc2)n1 | GI50 | nM | 2720
Cn1c(=O)[nH]c2nccc(Oc3ccc(NC(=O)Nc4cc(C(C)(C)C)nn4-c4ccccc4)c(F)c3)c21 | GI50 | nM | 167

1 = Cc1ccc(-n2nc(C(C)(C)C)cc2NC(=O)Nc2ccc(Oc3ccnc4[nH]c(=O)n(C)c34)c3ccccc23)cc1
2 = Cc1ccc(-n2nc(C(C)(C)C)cc2NC(=O)Nc2ccc(Oc3ccnc4[nH]c(=O)n(C)c34)cc2)cc1
stdin: // pick larger GI50 from pair: 1 vs 2 To answer, give the label that identifies your chosen option.
stdout: 1
(1: 1680 nM, 2: 450 nM)

A = Cn1c(=O)n(C)c2c(Oc3ccc(NC(=O)Nc4cc(C(C)(C)C)nn4-c4ccccc4)c(F)c3)ccnc21
B = CC(C)(C)c1cc(NC(=O)Nc2ccc(Oc3ccnc4[nH]c(=O)[nH]c34)cc2)n(-c2ccccc2)n1
C = Cn1c(=O)[nH]c2nccc(Oc3ccc(NC(=O)Nc4cc(C(C)(C)C)nn4-c4ccccc4)c4ccccc34)c21
stdin: Parameters: sort_field (GI50), sort_dir (desc). List labels; respect the requested ordering.
stdout: A, C, B
